# tested target: HLA-A*02:06
# experimental details: IEDB peptide-MHC binding, purified MHC/competitive/fluorescence; filed as Kd, often an IC50 or EC50 that approximates it; bounds were set here for any values at or beyond the usual limits of such assays
# test conditions: source organism: Haemophilus influenzae 3655
result type: Kd

| sequence chain | result |
| --- | --- |
| LMTAISQGI | ≤ 0.1 nM |

====

# tested target: HLA-B*35:01
# experimental details: IEDB peptide-MHC binding, purified MHC/competitive/radioactivity; filed as Kd, often an IC50 or EC50 that approximates it; bounds were set here for any values at or beyond the usual limits of such assays
# test conditions: source organism: Triticum aestivum
pKd: −log10 of the molar value.

| sequence chain | pKd |
| --- | --- |
| YPSGQGSF | 5.31 |

====

# tested target: HLA-A*02:02
# experimental details: IEDB peptide-MHC binding, purified MHC/competitive/radioactivity; filed as Kd, often an IC50 or EC50 that approximates it; bounds were set here for any values at or beyond the usual limits of such assays
# test conditions: source organism: Hepatitis C virus (isolate 1)

| sequence chain | tested target | Kd (µM) |
| --- | --- | --- |
| HPNIEEVAL | HLA-A*02:02 | 4 |

====

# tested target: HLA-A*02:11
# experimental details: IEDB peptide-MHC binding, purified MHC/competitive/fluorescence; filed as Kd, often an IC50 or EC50 that approximates it; bounds were set here for any values at or beyond the usual limits of such assays
# test conditions: source organism: Human immunodeficiency virus type 1 BH10
pKd: −log10 of the molar value.

| sequence chain | tested target | pKd |
| --- | --- | --- |
| LLQLTVWGI | HLA-A*02:11 | 8.37 |

====

# tested target: HLA-A*02:03
# experimental details: IEDB peptide-MHC binding, purified MHC/competitive/radioactivity; filed as Kd, often an IC50 or EC50 that approximates it; bounds were set here for any values at or beyond the usual limits of such assays
# test conditions: source organism: Dengue virus 2 Jamaica/1409/1983
pKd: −log10 of the molar value.
Some sequences, each annotated with its measured pKd.

| sequence chain | pKd |
| --- | --- |
| PLNEAIMAV | 7.74 |
| AIYGAAFSGV | 8.07 |
| GMCCIITASI | 7.08 |
| RLAANAICSA | 6.90 |

====

# tested target: HLA-B*15:09
# experimental details: IEDB peptide-MHC binding, purified MHC/direct/fluorescence; filed as Kd, often an IC50 or EC50 that approximates it; bounds were set here for any values at or beyond the usual limits of such assays
# test conditions: source organism: Brucella suis 1330

| sequence chain | tested target | Kd |
| --- | --- | --- |
| YWMGGTTYF | HLA-B*15:09 | ≥ 20 µM |

====

# tested target: HLA-A*69:01
# experimental details: IEDB peptide-MHC binding, purified MHC/direct/fluorescence; filed as Kd, often an IC50 or EC50 that approximates it; bounds were set here for any values at or beyond the usual limits of such assays
# test conditions: source organism: Vibrio vulnificus
pKd: −log10 of the molar value.

| sequence chain | pKd |
| --- | --- |
| KVMALPIPH | ≤ 4.70 |

====

# tested target: HLA-A*02:06
# experimental details: IEDB peptide-MHC binding, purified MHC/competitive/radioactivity; filed as Kd, often an IC50 or EC50 that approximates it; bounds were set here for any values at or beyond the usual limits of such assays
# test conditions: source organism: Lymphocytic choriomeningitis virus (strain Armstrong)
Some sequences, each annotated with its measured Kd.
result type: Kd (µM)

| sequence chain | measured number |
| --- | --- |
| LSYSQTMLL | 3.72 |
| LMDCIIFES | 0.3 |
| KCMSAALKNL | 14 |

====

# tested target: HLA-B*15:01
# experimental details: IEDB peptide-MHC binding, purified MHC/direct/fluorescence; filed as Kd, often an IC50 or EC50 that approximates it; bounds were set here for any values at or beyond the usual limits of such assays
# test conditions: source organism: Mycobacterium tuberculosis str. Haarlem
pKd: −log10 of the molar value.
result type: pKd

| sequence chain | tested target | result type | measured number |
| --- | --- | --- | --- |
| IASLTGWQW | HLA-B*15:01 | pKd | 4.80 |

====

# tested target: HLA-B*73:01
# experimental details: IEDB peptide-MHC binding, purified MHC/competitive/fluorescence; filed as Kd, often an IC50 or EC50 that approximates it; bounds were set here for any values at or beyond the usual limits of such assays
# test conditions: source organism: Yersinia enterocolitica subsp. enterocolitica 8081
result type: Kd (nM)

| sequence chain | result type | value unit | measured number |
| --- | --- | --- | --- |
| KRPYVFVAA | Kd | nM | 68.5 |

====

# tested target: HLA-A*69:01
# experimental details: IEDB peptide-MHC binding, purified MHC/direct/fluorescence; filed as Kd, often an IC50 or EC50 that approximates it; bounds were set here for any values at or beyond the usual limits of such assays
# test conditions: source organism: Campylobacter jejuni RM1221
pKd: −log10 of the molar value.
result type: pKd

| sequence chain | result type | result |
| --- | --- | --- |
| KSNEKNMDF | pKd | ≤ 4.70 |

====

# tested target: HLA-A*26:01
# experimental details: IEDB peptide-MHC binding, purified MHC/direct/fluorescence; filed as Kd, often an IC50 or EC50 that approximates it; bounds were set here for any values at or beyond the usual limits of such assays
# test conditions: source organism: Alkhumra hemorrhagic fever virus
pKd: −log10 of the molar value.
result type: pKd

| sequence chain | tested target | result |
| --- | --- | --- |
| WPWNAREDV | HLA-A*26:01 | ≤ 4.70 |

====

Some sequences, each annotated with its measured Kd.
# tested target: HLA-B*15:01
# experimental details: IEDB peptide-MHC binding, purified MHC/direct/fluorescence; filed as Kd, often an IC50 or EC50 that approximates it; bounds were set here for any values at or beyond the usual limits of such assays
# test conditions: source organism: Giardia lamblia ATCC 50803
result type: Kd

| sequence chain | result type | result |
| --- | --- | --- |
| RTRFFCIPK | Kd | ≥ 10000 nM |
| AIPYFYKGK | Kd | ≥ 20000 nM |
| ITASKDLCF | Kd | 301 nM |
| AEFWDVFLS | Kd | ≥ 20000 nM |
| VLRQAALSL | Kd | 44 nM |
| RPALVVDTP | Kd | ≥ 20000 nM |
| IRNLVKRYK | Kd | ≥ 20000 nM |
| AAFLDDNAF | Kd | 106 nM |

====

# tested target: HLA-C*06:02
# experimental details: IEDB peptide-MHC binding, purified MHC/direct/fluorescence; filed as Kd, often an IC50 or EC50 that approximates it; bounds were set here for any values at or beyond the usual limits of such assays
# test conditions: source organism: Vaccinia virus Copenhagen
pKd: −log10 of the molar value.

| sequence chain | pKd |
| --- | --- |
| YLHPKDKYL | 5.68 |

====

# tested target: HLA-B*08:01
# experimental details: IEDB peptide-MHC binding, purified MHC/competitive/fluorescence; bounds were set here for any values at or beyond the usual limits of such assays
# test conditions: source organism: Vaccinia virus WR

| sequence chain | IC50 |
| --- | --- |
| DIKASNIVL | ≥ 266 µM |
| TRVLKPSVI | ≥ 187 µM |

====

# tested target: HLA-B*35:01
# experimental details: IEDB peptide-MHC binding, purified MHC/competitive/radioactivity; filed as Kd, often an IC50 or EC50 that approximates it; bounds were set here for any values at or beyond the usual limits of such assays
# test conditions: source organism: Dengue virus 2 Jamaica/1409/1983
pKd: −log10 of the molar value.

| sequence chain | pKd |
| --- | --- |
| LILCVTQVLM | 4.85 |

====

Some sequences, each annotated with its measured pKd.
# tested target: HLA-B*07:02
# experimental details: IEDB peptide-MHC binding, purified MHC/direct/fluorescence; filed as Kd, often an IC50 or EC50 that approximates it; bounds were set here for any values at or beyond the usual limits of such assays
# test conditions: source organism: Vibrio cholerae
pKd: −log10 of the molar value.

| sequence chain | qual | pKd |
| --- | --- | --- |
| IPISGRITA | = | 7.61 |
| KEDPGDHIF | ≤ | 4.70 |

====

# tested target: HLA-A*69:01
# experimental details: IEDB peptide-MHC binding, purified MHC/direct/fluorescence; filed as Kd, often an IC50 or EC50 that approximates it; bounds were set here for any values at or beyond the usual limits of such assays
# test conditions: source organism: Homo sapiens
pKd: −log10 of the molar value.

| sequence chain | tested target | pKd |
| --- | --- | --- |
| RPASAGAML | HLA-A*69:01 | 5.08 |
